All values here come from ChEMBL document CHEMBL4316588.

system: Streptococcus pneumoniae; assay: Antibacterial activity against penicillin-resistant Streptococcus pneumoniae after 18 to 20 hrs by CLSI-protocol based broth microdilution method; assay type: functional
Active and inactive are the calls of the source. The calls are words filed in the database; no cut-off is given here.
experimentalReadout: MIC

INSERT INTO measurements (compound, experimentalreadout, measured) VALUES
  ('C[C@@H]1CN2c3c(cc4c(N5C(=O)S[C@@H]6CCCC[C@@H]65)noc4c3F)CC3(C(=O)NC(=O)NC3=O)[C@H]2[C@H](C)O1', 'MIC', '< 0.03 µg/mL'),
  ('CC[C@@H]1CSC(=O)N1c1noc2c(F)c3c(cc12)CC1(C(=O)NC(=O)NC1=O)[C@H]1[C@H](C)O[C@H](C)CN31', 'MIC', '2 µg/mL'),
  ('C[C@@H]1CN2c3c(cc4c(N5C[C@@H](C)SC5=O)noc4c3F)CC3(C(=O)NC(=O)NC3=O)[C@H]2[C@H](C)O1', 'MIC', '≤ 0.03 µg/mL'),
  ('C[C@@H]1CN2c3c(cc4c(N5CCOC5=O)noc4c3F)CC3(C(=O)NC(=O)NC3=O)[C@H]2[C@H](C)O1', 'MIC', '0.25 to 1 µg/mL');

Just so you know, measured MIC for C[C@@H]1CN2c3c(cc4c(N5CCOCC5=O)ncnc4c3F)CC3(C(=O)NC(=O)NC3=O)[C@H]2[C@H](C)O1 (racemic) came out at inactive

The reported value for C[C@@H]1CN2c3c(cc4c(N5CC6(CCCC6)OC5=O)noc4c3F)CC3(C(=O)NC(=O)NC3=O)[C@H]2[C@H](C)O1 in terms of MIC is 0.25 to 1 µg/mL

The recorded MIC for entry C[C@@H]1CN2c3c(cc4c(N5CCOC5=S)noc4c3F)CC3(C(=O)NC(=O)NC3=O)[C@H]2[C@H](C)O1 (racemic) equals 1 to 2 µg/mL

The compound listed as C[C@@H]1CN2c3c(cc4c(N5C[C@H](COC(F)(F)F)SC5=O)noc4c3F)CC3(C(=O)NC(=O)NC3=O)[C@H]2[C@H](C)O1 shows MIC equal to 0.125 to 0.5 µg/mL

// MIC lookup, compound = C[C@@H]1CN2c3c(cc4c(N5C(=O)S[C@@H]6CCC[C@@H]65)noc4c3F)CC3(C(=O)NC(=O)NC3=O)[C@H]2[C@H](C)O1 , result: < 0.03 µg/mL
